Tested on: DU145
Assay: Euclidean distance of Cell Painting phenotypic profile (signed KS, 77 features) to DMSO centroid (dimensionless distance); 5 or 10 uM (library dependent); higher = stronger phenotypic change vs DMSO (phenoactivity)
Settings: 48 h
Structures can show the parent of a compound that is named as a salt.
Euclidean distance vs 1: at or above is y, below is n.

compound="C[C@@H]1C[C@H]2[C@@H]3CCC4=CC(=O)C=C[C@]4(C)[C@@]3(F)[C@@H](O)C[C@]2(C)[C@@]1(O)C(=O)CO [Dexamethasone (DHAP)]" qualitative_label=y
compound="CC[C@H]1OC(=O)[C@H](C)[C@@H](O[C@H]2C[C@@](C)(OC)[C@@H](O)[C@H](C)O2)[C@H](C)[C@@H](O[C@@H]2O[C@H](C)C[C@H](N(C)C)[C@H]2O)[C@](C)(O)C[C@@H](C)[C@@H]2N[C@@H](COCCOC)O[C@H]([C@H]2C)[C@]1(C)O [Dirithromycin]" qualitative_label=n
compound="O=C(NCCO[N+](=O)[O-])c1cccnc1 [Nicorandil]" qualitative_label=y
compound="Cc1cn(-c2cc(NC(=O)c3ccc(C)c(Nc4nccc(-c5cccnc5)n4)c3)cc(C(F)(F)F)c2)cn1 [Nilotinib (AMN-107)]" qualitative_label=y
compound="CC(=O)N[C@H]1[C@H]([C@H](O)[C@H](O)CO)OC(C(=O)O)=C[C@@H]1NC(=N)N [Zanamivir]" qualitative_label=n
compound="CC[C@@]1(O)C(=O)OCc2c1cc1n(c2=O)Cc2cc3c(CN(C)C)c(O)ccc3nc2-1 [Topotecan]" qualitative_label=y
compound="COc1cc(OC)c(C(=O)CCCN2CCCC2)c(OC)c1 [Buflomedil HCl]" qualitative_label=n
compound="O=C(COc1ccc(Cl)cc1)N1CCN(Cc2ccc3c(c2)OCO3)CC1 [Fipexide hydrochloride]" qualitative_label=y
compound=Cc1c(F)cc(C(=O)NC2CC2)cc1-c1ccc(C(=O)NCC(C)(C)C)cn1 qualitative_label=y
compound="COc1ccc2cccc(CCNC(C)=O)c2c1 [Agomelatine]" qualitative_label=n
compound="CO[C@H]1C[C@@H]2CC[C@@H](C)[C@@](O)(O2)C(=O)C(=O)N2CCCC[C@H]2C(=O)O[C@H]([C@H](C)C[C@@H]2CC[C@@H](OP(C)(C)=O)[C@H](OC)C2)CC(=O)[C@H](C)/C=C(\\C)[C@@H](O)[C@@H](OC)C(=O)[C@H](C)C[C@H](C)/C=C/C=C/C=C/1C [Deforolimus]" qualitative_label=y

###

Tested on: FB
Test: Euclidean distance of Cell Painting phenotypic profile (signed KS, 77 features) to DMSO centroid (dimensionless distance); 5 or 10 uM (library dependent); higher = stronger phenotypic change vs DMSO (phenoactivity)
Details: 48 h
Euclidean distance listing for selected compounds.
Property label: Euclidean distance

compound="C=C[C@](C)(O)CC[C@@H]1[C@@]2(C)CCCC(C)(C)[C@@H]2CC[C@@]1(C)O [Sclareol]" system=FB quantitative_readout=0.717
compound="O=c1[nH]cnc2c1ncn2[C@H]1CC[C@@H](CO)O1 [Didanosine]" system=FB quantitative_readout=0.891
compound="CCOC(=O)CC(=O)N1CCSC1COc1ccccc1OC (centres undefined) [Moguisteine]" system=FB quantitative_readout=0.84
compound="Cc1cc(NS(=O)(=O)c2ccc(N)cc2)no1 [Sulfamethoxazole sodium]" system=FB quantitative_readout=0.902
compound="NS(=O)(=O)c1cc(C2(O)NC(=O)c3ccccc32)ccc1Cl (centres undefined) [Chlorthalidone]" system=FB quantitative_readout=1.4
compound="O=C1[C@@H]2[C@H]3CC[C@H](C3)[C@@H]2C(=O)N1C[C@@H]1CCCC[C@H]1CN1CCN(c2nsc3ccccc23)CC1 [lurasidone]" system=FB quantitative_readout=1.35
compound=CC(C)CC(=O)Nc1cncc(-c2ccc3[nH]nc(-c4nc5cncc(-c6cccc(F)c6)c5[nH]4)c3c2)c1 system=FB quantitative_readout=4.58
compound=Cc1ccc(Nc2nccc(N(C)c3ccc4c(C)n(C)nc4c3)n2)cc1S(N)(=O)=O system=FB quantitative_readout=2.87
compound="CC(C)Cc1ccc(C(C)C(=O)O)cc1 (centres undefined) [Ibuprofen]" system=FB quantitative_readout=0.827
compound="CNCCc1ccccn1 [Betahistine]" system=FB quantitative_readout=1.01
compound="O=C(O)CSc1nnc(Br)n1-c1ccc(C2CC2)c2ccccc12 [Lesinurad]" system=FB quantitative_readout=0.983
compound="CCC(=O)N1CCN(c2ccc(-n3c(=O)ccc4cnc5ccc(-c6cnc7ccccc7c6)cc5c43)cc2C(F)(F)F)CC1 [Torin 1]" system=FB quantitative_readout=4.26
compound="NCCc1c[nH]cn1 [Histamine Phosphate]" system=FB quantitative_readout=1.25
compound="Nc1nc(=O)n([C@@H]2CS[C@H](CO)O2)cc1F [Emtricitabine]" system=FB quantitative_readout=0.924

###

System: 786-O
Experiment: Euclidean distance of Cell Painting phenotypic profile (signed KS, 77 features) to DMSO centroid (dimensionless distance); 5 or 10 uM (library dependent); higher = stronger phenotypic change vs DMSO (phenoactivity)
Details: 48 h
Counter-ions that a name gives are not always drawn.
Property label: Euclidean distance

compound="O=C1CN2Cc3c(ccc(Cl)c3Cl)N=C2N1 [Anagrelide HCl]" result=0.871
compound=CO[C@H]1CC[C@H](N2C(=O)CNc3ncc(-c4ccc(C(C)(C)O)nc4)nc32)CC1 result=3.2
compound=CC(C)CC(=O)Nc1cncc(-c2ccc3[nH]nc(-c4nc5cncc(-c6cccc(F)c6)c5[nH]4)c3c2)c1 result=5.07
compound="Cc1c(Nc2ncccc2C(=O)O)cccc1C(F)(F)F [Flunixin Meglumin]" result=1.03
compound="COc1cc(N)cn[n+]1-c1ccccc1 [Amezinium (methylsulfate)]" result=1.39

###

Euclidean distance listing for selected compounds.
Tested on: A549
Assay: Euclidean distance of Cell Painting phenotypic profile (signed KS, 77 features) to DMSO centroid (dimensionless distance); 5 or 10 uM (library dependent); higher = stronger phenotypic change vs DMSO (phenoactivity)
Conditions: 48 h
Counter-ions that a name gives are not always drawn.
Property label: Euclidean distance

compound=O=C1OC2(c3ccc(O)cc3Oc3cc(O)ccc32)c2ccccc21 property_label="Euclidean distance" quantitative_readout=0.447
compound=O=C(O)C1(C(=O)O)CCC1.[NH2-].[NH2-].[Pt+2] property_label="Euclidean distance" quantitative_readout=1.98
compound=Cc1cc2c(C(N)=O)cccc2n1-c1nc2c(c(NCc3ccccc3)n1)COCC2 property_label="Euclidean distance" quantitative_readout=2.9
compound=O=C(NC1CCOCC1)c1ccc(-c2cc(-c3c[nH]nc3-c3ccccn3)ccn2)cc1 property_label="Euclidean distance" quantitative_readout=0.965
compound=CC(C)CN(C[C@@H](O)[C@H](Cc1ccccc1)NC(=O)O[C@H]1CCOC1)S(=O)(=O)c1ccc(N)cc1 property_label="Euclidean distance" quantitative_readout=1.29
compound="CC(C)NCC(O)c1ccc(O)c(O)c1 (configuration not stated) [Isoproterenol sulfate dihydrate]" property_label="Euclidean distance" quantitative_readout=0.632
compound=O=C(O)c1cccc(-c2noc(-c3ccccc3F)n2)c1 property_label="Euclidean distance" quantitative_readout=0.791
compound="CC(C)C(=O)Nc1ccc([N+](=O)[O-])c(C(F)(F)F)c1 [Flutamide]" property_label="Euclidean distance" quantitative_readout=0.771
compound=O=C1CCc2cc(OCCCCc3nnnn3C3CCCCC3)ccc2N1 property_label="Euclidean distance" quantitative_readout=0.94
compound=C[C@]12CCC(=O)C=C1C=C[C@@H]1[C@@H]2CC[C@@]2(C)[C@H]1CC[C@@]21CCC(=O)O1 property_label="Euclidean distance" quantitative_readout=0.961
compound=CS(=O)(=O)CCNCc1ccc(-c2ccc3ncnc(Nc4ccc(OCc5cccc(F)c5)c(Cl)c4)c3c2)o1 property_label="Euclidean distance" quantitative_readout=3.1
compound=CN[C@@H](C)C(=O)N[C@H](C(=O)N1CCC[C@H]1c1nc(C(=O)c2ccc(F)cc2)cs1)C1CCCCC1 property_label="Euclidean distance" quantitative_readout=1.17
compound=CCn1c(=O)c2c(nc(/C=C/c3ccc(OC)c(OC)c3)n2C)n(CC)c1=O property_label="Euclidean distance" quantitative_readout=1.5
compound="CC(=O)OCC(=O)[C@@]1(O)CC[C@H]2[C@@H]3CCC4=CC(=O)C=C[C@]4(C)[C@H]3[C@@H](O)C[C@@]21C [Prednisolone Acetate]" property_label="Euclidean distance" quantitative_readout=2.13
compound="CCCC(=O)O[C@]1(C(=O)CO)CC[C@H]2[C@@H]3CCC4=CC(=O)CC[C@]4(C)[C@H]3[C@@H](O)C[C@@]21C [Hydrocortisone butyrate]" property_label="Euclidean distance" quantitative_readout=2.18
compound=Cc1cc(-c2ncc(CC(=O)Nc3ccc(-c4cnccn4)cn3)cc2C)ccn1 property_label="Euclidean distance" quantitative_readout=1.24
compound="Cc1cccc(Nc2ccncc2S(=O)(=O)NC(=O)NC(C)C)c1 [Torsemide]" property_label="Euclidean distance" quantitative_readout=0.66
compound="COc1cc2nc(N3CCN(C(=O)C4CCCO4)CC3)nc(N)c2cc1OC (configuration not stated) [Terazosin HCl]" property_label="Euclidean distance" quantitative_readout=0.699
compound=O=C1NCCc2[nH]c(-c3ccncc3)cc21 property_label="Euclidean distance" quantitative_readout=0.97
compound="C=CCOc1ccccc1OCC(O)CNC(C)C (configuration not stated) [Oxprenolol HCl]" property_label="Euclidean distance" quantitative_readout=0.819
compound=CCCCCCCCCCCCCCCCCCOP(=O)([O-])OC1CC[N+](C)(C)CC1 property_label="Euclidean distance" quantitative_readout=1.09
compound="C[C@@H]1CCC[C@H](C)N1NC(=O)c1ccc(Cl)c(S(N)(=O)=O)c1 [Clopamide]" property_label="Euclidean distance" quantitative_readout=1.14
